Assignment: determine reported fraction unbound for the given compounds.
ASSAY METHOD TEXT: Plasma protein binding in rat
Format: ADME, cell-free
CONDITIONS: read-out: PPB (converted)
A bare number is all that is needed in reply.

Which value of fraction unbound has been reported for O=C(c1ccc(F)cc1)N1CCN2C(=O)c3ccccc3C12c1ccc(Cl)cc1 (racemic) in the records? 0.02

Try this compound too: O=C(c1ccc(F)cc1)N1CCN2C(=O)c3ccncc3C12c1ccc(Cl)cc1 (racemic) 0.27

###

ASSAY METHOD TEXT: Total clearance in Sprague-Dawley rat at 1.4 mg/kg, iv
Type: ADME, organism-based
Parameters: dose 1.4 mg/kg, route intravenous
CONDITIONS: in vivo
READOUT TYPE: clearance (mL/min/kg)
Respond with the bare value in mL/min/kg.

// clearance lookup, key: O=C(c1ccc(F)cc1)N1CCN2C(=O)c3ccccc3C12c1ccc(Cl)cc1 (racemic) 2.1
